Items are presented alongside their recorded IC50.
# study system: butyrylcholinesterase (BChE, EC3.1.1.8) (Equus caballus)
# Construct: horse serum butyrylcholinesterase (BChE, EC3.1.1.8); purchased Sigma-Aldrich Co. (St. Louis, Mo., USA); host or cells: horse serum
# experimental protocol: In vitro cholinesterase activity assay (Ellman) and enzyme kinetics, BChE
# Type: biochemical
# setup conditions: concentrations up to 125 μM; read-out: IC50 Butyrylcholine esterase Mean ± SEM
metric name: IC50 (µM)

- Cc1cc2c(c(C)c1CCO)C(=O)[C@](C)(CO)C2: 57.3
- Cc1cc2c(c(C)c1CCO[C@@H]1OC(CO)[C@@H](O)[C@H](O)C1O)C(=O)[C@H](C)C2 (stereo partly drawn) [Compound 14, (2R)-pteroside B]: 17
- Cc1cc2c(c(C)c1CCO[C@@H]1OC(CO)[C@@H](O)[C@H](O)C1O)C(=O)[C@@H](C)[C@H]2O (stereo partly drawn) [Compound 15, (2S,3R)-pteroside C]: 12
- Cc1cc2c(c(C)c1CCO[C@@H]1OC(CO)[C@@H](O)[C@H](O)C1O)C(=O)[C@](C)(CO)C2 (stereo partly drawn) [Compound 12, (2S)-pteroside A]: 199

====

# study system: BACE1 (β-secretase, recombinant human enzyme) (Homo sapiens)
# Sequence (P56817 46-501): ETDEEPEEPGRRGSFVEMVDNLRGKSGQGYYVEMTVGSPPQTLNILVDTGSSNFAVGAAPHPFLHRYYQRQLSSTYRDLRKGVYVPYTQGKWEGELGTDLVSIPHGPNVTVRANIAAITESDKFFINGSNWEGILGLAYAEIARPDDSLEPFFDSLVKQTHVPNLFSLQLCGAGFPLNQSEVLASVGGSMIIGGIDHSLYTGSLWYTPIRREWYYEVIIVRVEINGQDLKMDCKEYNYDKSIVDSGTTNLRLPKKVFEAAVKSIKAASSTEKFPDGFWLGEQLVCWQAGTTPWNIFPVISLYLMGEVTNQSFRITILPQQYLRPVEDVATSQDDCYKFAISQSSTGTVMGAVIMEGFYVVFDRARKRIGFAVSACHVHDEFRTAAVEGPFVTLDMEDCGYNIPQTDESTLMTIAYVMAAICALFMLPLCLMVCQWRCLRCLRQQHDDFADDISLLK
# experimental protocol: biochemical
pIC50: −log10 of the molar value.
metric name: pIC50

• Cc1cc2c(c(C)c1CCO)C(=O)[C@H](C)C2 [Compound 4, (2R)-pterosin B] = 4.74
• Cc1cc2c(c(C)c1CCO)C(=O)C(C)(C)C2 [Compound 11, pterosin Z] = 4.31
• Cc1cc2c(c(C)c1CCO)C(=O)[C@](C)(COC1O[C@H](CO)[C@@H](O)[C@H](O)[C@H]1O)C2 (stereo partly drawn) [Compound 13, (2S)-pteroside A2] = 4.03
• Cc1cc2c(c(C)c1CCO)C(=O)[C@@H](C)[C@H]2O [Compound 8, (2S,3R)-pterosin C] = 4.85
• Cc1cc2c(c(C)c1CCO)C(=O)[C@](C)(CO)C2 [Compound 3, (2S)-pterosin A] = 4.19
• Cc1cc2c(c(C)c1CCO)C(=O)C(C)(C)[C@@H]2O [Compound 9, (3R)-Pterosin D] = 4.25
• CC(=O)C1(/C(C)=C\C2=CC(=O)C(C)C2)CC1 (stereo not drawn) [Compound 2] = 4.71
• Cc1cc2c(c(C)c1CCO)C(=O)[C@H](C)[C@H]2O [Compound 7, (2R,3R)-pterosin C] = 4.80
• Cc1c(CCO)c(CO)cc2c1C(=O)[C@@H](C)C2 [Compound 10, (2S)-pterosin P] = 4.39

====

# key: entry, value: SI selectivity index (BChE/AChE)
# study system: butyrylcholinesterase (BChE, EC3.1.1.8) (Equus caballus, UniProt P81908)
# Construct: horse serum butyrylcholinesterase (BChE, EC3.1.1.8); purchased Sigma-Aldrich Co. (St. Louis, Mo., USA); host or cells: horse serum
# Sequence (P81908 whole entry): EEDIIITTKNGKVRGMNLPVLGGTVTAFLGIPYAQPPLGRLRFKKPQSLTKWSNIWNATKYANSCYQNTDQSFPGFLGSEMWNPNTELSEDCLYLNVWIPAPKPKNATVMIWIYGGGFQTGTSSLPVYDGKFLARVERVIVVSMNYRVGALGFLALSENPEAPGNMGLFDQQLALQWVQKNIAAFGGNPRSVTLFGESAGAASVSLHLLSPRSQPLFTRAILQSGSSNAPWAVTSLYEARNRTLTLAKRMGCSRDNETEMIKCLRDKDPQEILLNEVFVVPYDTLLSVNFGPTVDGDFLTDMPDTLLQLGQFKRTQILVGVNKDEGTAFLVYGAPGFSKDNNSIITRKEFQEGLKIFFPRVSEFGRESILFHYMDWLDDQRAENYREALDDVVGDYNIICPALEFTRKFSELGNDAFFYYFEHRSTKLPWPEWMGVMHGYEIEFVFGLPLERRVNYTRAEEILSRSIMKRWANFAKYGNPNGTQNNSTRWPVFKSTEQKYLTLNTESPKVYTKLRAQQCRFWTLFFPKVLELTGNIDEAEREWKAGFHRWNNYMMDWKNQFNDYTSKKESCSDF
# experimental protocol: In vitro cholinesterase activity assay (Ellman) and enzyme kinetics, BChE
# Assay type: biochemical
# setup conditions: ratio of IC50 BChE/AChE
metric name: SI selectivity index (BChE/AChE)

• Cc1cc2c(c(C)c1CCO)C(=O)C(C)(C)C2 = 1.7
• Cc1cc2c(c(C)c1CCO[C@@H]1OC(CO)[C@@H](O)[C@H](O)C1O)C(=O)[C@](C)(O)C2 (single isomer, unassigned; (-)) [Compound 18, (−)-pteroside N] = 1.7
• Cc1cc2c(c(C)c1CCO)C(=O)[C@H](C)C2 = 3.0
• Cc1cc2c(c(C)c1CCO[C@@H]1OC(CO)[C@@H](O)[C@H](O)C1O)C(=O)[C@H](C)[C@H]2O (stereo partly drawn) [Compound 16, (2R,3R)-pteroside C] = 1.4
• Cc1cc2c(c(C)c1CCO)C(=O)[C@H](C)[C@H]2O = 0.88
• Cc1cc2c(c(C)c1CCO)C(=O)[C@](C)(CO)C2 = 12
• Cc1c(CCO[C@@H]2OC(CO)[C@@H](O)[C@H](O)C2O)c(CO)cc2c1C(=O)[C@@H](C)C2 (stereo partly drawn) [Compound 19, (2S)-pteroside P] = 0.57
• Cc1cc2c(c(C)c1CCO)C(=O)[C@@H](C)[C@H]2O = 3.5
• Cc1cc2c(c(C)c1CCO[C@@H]1OC(CO)[C@@H](O)[C@H](O)C1O)C(=O)C(C)(C)C2 (some centres unmarked) [Compound 20, pteroside Z] = 0.24
• Cc1cc2c(c(C)c1CCO[C@@H]1OC(CO)[C@@H](O)[C@H](O)C1O)C(=O)C(C)(C)[C@H]2O (stereo partly drawn) [Compound 17, (3S)-pteroside D] = 0.70
• CC(=O)C1(/C(C)=C\C2=CC(=O)C(C)C2)CC1 (centres unmarked) = 0.83
• Cc1cc2c(c(C)c1CCO[C@@H]1OC(CO)[C@@H](O)[C@H](O)C1O)C(=O)[C@@H](C)[C@H]2O (stereo partly drawn) [Compound 15, (2S,3R)-pteroside C] = 1.4
• Cc1c(CCO)c(CO)cc2c1C(=O)[C@@H](C)C2 = 3.1
• Cc1cc2c(c(C)c1CCO)C(=O)[C@](C)(COC1O[C@H](CO)[C@@H](O)[C@H](O)[C@H]1O)C2 (stereo partly drawn) [Compound 13, (2S)-pteroside A2] = 3.0

Cited source: patent US20220257532A1
